- protocol text: Components of the Cytosolic LPS Sensing Pathway: Gene Identification via Genome-wide siRNA Screen
- experimental parameters: RAW264.7 macrophages, IL-1a HTRF, actives lie on both sides, screened at 100 nM (by protocol), cells primed 5 h with Pam3CSK4 first
The whole screen tested about 53,000 sequences, of which about 3,700 (7%) were called active. The full list was thinned out, with actives kept by preference.
Attribute: z-score
Enter a number only.

Known z-score results, listed for orientation:
> print(dat)
                         entry.sequence  test.value
1   GGAAUUUGCUGCCCUCCUATT against Smad3      -0.206
2    GGUCCUAAUUCGAAGCAGATT against Emc3      -0.589
3    GGACAUUGCAUUGCUCAUGTT against Sec1      -0.526
4  GGGCAUGUGAUAGAACAAUTT against Stoml1      -0.701

Dear colleague, I am looking for the recorded z-score of the following sequence: CGUGGUUGAACUUUGUCCGTT against C1qtnf12
-0.569

Dear colleague, I am looking for the recorded z-score of the following sequence: CGUACAGUGAUGAUUUUGATT against Cep162
0.218

----------
- protocol text: Components of the Cytosolic LPS Sensing Pathway: Gene Identification via Genome-wide siRNA Screen
- experimental parameters: RAW264.7 macrophages, IL-1a HTRF, actives lie on both sides, screened at 100 nM (by protocol), cells primed 5 h with Pam3CSK4 first
About 3,700 (7%) of roughly 53,000 sequences were called active.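 Rule for the calls: active = gene knockdowns whose robust z-score for IL-1 alpha signal is at least 2 or at most -2, so actives lie on both sides; inactive = the rest.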 The sample as a whole holds a higher share of actives than the screen did.
In this exercise, the only acceptable responses are class 1 for active, class 0 for inactive

These solved cases illustrate the format of a correct answer.
> print(dat)
                         entry.sequence      cat
1    CCAUACCGAUCAAAUUCCCTT against Pfn2  class 0
2  GGCUGUUCGUGCAAGCCUATT against Bahcc1  class 0
3  GGUGAUGUAUUAUUAUCCATT against Defb12  class 0
4  GGAUAUGUCAGCAUAUGUGTT against Yeats4  class 0
5    GCAGCCUUCGUGAGUCUGUTT against Asb1  class 0
6  GCUAAGUGCUCGAAUCCGATT against Cnppd1  class 0

What was the test verdict on GGAAAAGCUCAAUGUCCUCTT against Tex13b ?
class 0

----------
- protocol text: Components of the Cytosolic LPS Sensing Pathway: Gene Identification via Genome-wide siRNA Screen
- experimental parameters: RAW264.7 macrophages, IL-1a HTRF, actives lie on both sides, screened at 100 nM (by protocol), cells primed 5 h with Pam3CSK4 first
The campaign covered roughly 53,000 sequences. About 3,700 (7%) were called active. Many of the other results were omitted from the sample, so actives are more common in it than they were.
Mark condition met only for z-score values smaller than 0.5; exact matches and larger values are condition not met.

> print(dat)
                       entry.sequence            cat
1  GCGACUCCUAUAAUUUCUATT against Rpa3  condition met

Problem: For the sequence GGUAAGUGGAGGUAUUCUUTT against Egln1 , is z-score under 0.5?
condition not met

Problem: For the sequence GCGAAAUCAACAGUCAAUUTT against Ep300 , is z-score under 0.5?
condition met

Problem: For the sequence GGCAUUUGACUUUAUUGCATT against Nit1 , is z-score under 0.5?
condition not met

----------
- protocol text: Components of the Cytosolic LPS Sensing Pathway: Gene Identification via Genome-wide siRNA Screen;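 note: robust z of the log signal after scaling to non-targeting control siRNA wells of the plate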
- experimental parameters: RAW264.7 macrophages, IL-1a HTRF, actives lie on both sides, screened at 100 nM (by protocol), cells primed 5 h with Pam3CSK4 first
Among all 53,000 sequences or so, about 3,700 (7%) were called active. This is one part of a sample in which actives are shown more often than they occur.
Label rule, in plain words: z-score of -0.2 and up is rule met, under -0.2 is rule not met.

> print(dat)
                         entry.sequence           cat
1  GGUGAUCACAAAUAUGAUGTT against Ubxn2b      rule met
2  GGAAAACUUUAGCUACAAATT against Ppp4r4  rule not met
3  CCAGUAAACCGAGACCAUUTT against Nsfl1c      rule met

Is the recorded value of z-score equal to or greater than -0.2 for this sequence? GGUGAUUGGUGUAAAAUCUTT against Gdi2
rule not met

Is the recorded value of z-score equal to or greater than -0.2 for this sequence? GGAGGUGCGCUUCUUUAACTT against Chst5
rule met

Is the recorded value of z-score equal to or greater than -0.2 for this sequence? CCAUGUUCCAGUUAAUGACTT against Ptch1
rule not met

Is the recorded value of z-score equal to or greater than -0.2 for this sequence? GCAAGAUCCAGAACACUCATT against Adora1
rule not met

----------
- protocol text: Components of the Cytosolic LPS Sensing Pathway: Gene Identification via Genome-wide siRNA Screen;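 note: robust z of the log signal after scaling to non-targeting control siRNA wells of the plate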
- experimental parameters: RAW264.7 macrophages, IL-1a HTRF, actives lie on both sides, screened at 100 nM (by protocol), cells primed 5 h with Pam3CSK4 first
Among all 53,000 sequences or so, about 3,700 (7%) were called active. The sample as a whole holds a higher share of actives than the screen did.
outcome measure: z-score
Enter a number only.

Known z-score results, listed for orientation:
> print(dat)
                           entry.sequence  outcome.measure  test.value
1       GGAGUAUUAUGAAGUGUUGTT against Aip          z-score       0.108
2     GCUCAACUUCUGAAUUAUATT against Enpep          z-score        2.64
3  GCAGCUAUUGAGCAUGGUGTT against Atp6v1g3          z-score       -2.16
4      GGACUGUGAUCAGGUUUGUTT against Elk3          z-score       0.695
5     GGAAUCACAAGGUAUUUUCTT against Spo11          z-score      -0.237
6   GCUCUGCCUUCAGAUGACGTT against Olfr173          z-score       -0.26

Dear colleague, I am looking for the recorded z-score of the following sequence: GCCCAAAAGUAUAAACCAGTT against Peg12
0.318

Dear colleague, I am looking for the recorded z-score of the following sequence: GCUAUCCAGAUUGGUGUUATT against Tatdn1
1.7

Dear colleague, I am looking for the recorded z-score of the following sequence: GCUGAGAGUAUCCUUAUUCTT against Fhdc1
0.374

Dear colleague, I am looking for the recorded z-score of the following sequence: CCAUGACUACAACACAUACTT against Ndufv3
-3.07

Dear colleague, I am looking for the recorded z-score of the following sequence: GGCUAUGCUUCUUUCCUUUTT against Cfhr1
0.846

Dear colleague, I am looking for the recorded z-score of the following sequence: GGUCAGAAAUUCUAAGUUGTT against Gpatch2
1.09

----------
- protocol text: Components of the Cytosolic LPS Sensing Pathway: Gene Identification via Genome-wide siRNA Screen;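 note: robust z of the log signal after scaling to non-targeting control siRNA wells of the plate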
- experimental parameters: RAW264.7 macrophages, IL-1a HTRF, actives lie on both sides, screened at 100 nM (by protocol), cells primed 5 h with Pam3CSK4 first
Among all 53,000 sequences or so, about 3,700 (7%) were called active.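 Rule for the calls: active = gene knockdowns whose robust z-score for IL-1 alpha signal is at least 2 or at most -2, so actives lie on both sides; inactive = the rest.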 This is one part of a sample in which actives are shown more often than they occur.
In this exercise, the only acceptable responses are yes (active), no (inactive)

> print(dat)
                             entry.sequence  cat
1       GGGAAGAAAUCAACGAUAATT against Gpa33   no
2  GGAGAAAUUCUAUGGUAUUTT against 5031434C07Rik  yes
3      GGACAUCUACACCAUUUGGTT against Mplkip  yes
4     GGGCCUGAUCUACCUGUUUTT against Slc6a18   no
5       CCGGUAUUUAGGAACUGCCTT against Irak2   no

What was the test verdict on GGAAUCCUCGGCAGAUAAATT against Rpl24 ?
yes

What was the test verdict on GGAGAACUCUUUCAGAUUCTT against Stk36 ?
no

What was the test verdict on GGCCGUAAUAUCUCCUCCUTT against Krt13 ?
no

----------
- protocol text: Components of the Cytosolic LPS Sensing Pathway: Gene Identification via Genome-wide siRNA Screen;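 note: robust z of the log signal after scaling to non-targeting control siRNA wells of the plate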
- experimental parameters: RAW264.7 macrophages, IL-1a HTRF, actives lie on both sides, screened at 100 nM (by protocol), cells primed 5 h with Pam3CSK4 first
In all, about 53,000 sequences went through this assay and about 3,700 (7%) were called active.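 The calls were made as follows: active = gene knockdowns whose robust z-score for IL-1 alpha signal is at least 2 or at most -2, so actives lie on both sides; inactive = the rest.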 The sample as a whole holds a higher share of actives than the screen did.
In this exercise, the only acceptable responses are True = active, False = inactive

> print(dat)
                          entry.sequence    cat
1    GGCUUUCACGCUUUGACAATT against Ap1m2  False
2  GGACAAAGUCACAGAGUCCTT against Slc26a5   True
3      GCAUUGGCAGACCCGAGUUTT against Pir  False
4  GGAGACUGACAAGAAAAUUTT against Gm16367  False
5  GGAUCAAAAGGUGAAUGCUTT against Vmn1r67   True

Next, consider the following sequence.
What was the test verdict on GGAUCAACAUGGUCUCCUCTT against Stambpl1 ?
False
